experiment: soluble on expression in E. coli; label from the status in PepcDB or PDB records
result.type: soluble on expression in E. coli

MGAFDRVKAQVASDSKWTSAPYKGFVAGSPSNTYIDIVSTAFEDATNTMNFARHSKYDEMYSPYLGSFRERHNYTSIAPSLCINKTNRAIEYDLAPHKAYNPRQSEWLLEKDKKYRVRGARNLIYTKSASDISLPPLTRRTFTVPTDTLRHQNQFLYWNGRALGLDYVAPFLRREDYSRHEDRRYQRIYWSPHFIDLLPSCRHSAHLMLSAY: not soluble
MTGDKEIITMTFKIWQIGLHLQQQEAAAVAIVRGAKECFLQRWWRLPLAHDIIKDGRIVDAQQLAKTLLPWSRELPQRHHIMLAFPASRTLQRSFPRPSMSLGEREQTAWLSGTMARELDMDPDSLRFDYSEDSLSPAYNVTAAQSKELATLLTLAERLRVHVSAITPDASALQRFLPFLPSHQQCLAWRDNEQWLWATRYSWGRKLAVGMTSAKELAAALSVDPDSVAICGEGGFDPWEAVSVRQPPLPPPGGDFAIALGLALGKAY: not soluble
